Hello, the source for this data is PubChem BioAssay (NCI), in case you need it.

- Tested on: LOX IMVI melanoma
- assay_procedure: NCI-60 one-dose screen, 48 h (100 = growth as untreated, 0 = no growth, -100 = all killed)
- experimental_conditions: 10 µM unless noted
- Procedure: Growth inhibition of the LOX IMVI human tumor cell line is measured as a screen for anti-cancer activity. Cells are grown in 96 well plates and exposed to the test compound for 48 hours. Compounds are tested at a single concentration, which is 10^-5 M for most compounds. The reported endpoint is percent growth (GI% or GIPRCNT), where numbers from 0 - 100% represent growth inhibition, and numbers from -100% - 0 represent cell death. For example, a value of 40 represents 60% growth inhibition. […]
This is part of a sample that, as a whole, favours compounds with a hit. Of some 83,000 tested, about 20% had one in any assay.
property_label: growth (%)
Use % as the unit, but write only the number.

Quick check: growth of CC(O)(CO)c1ccccc1 (centres undefined) ?
102

Quick check: growth of COc1ccc(-c2nc(SC)nc(N3CCOCC3)c2C#N)cc1 ?
96.1

Quick check: growth of COc1ccc(-c2nn(Cc3ccccc3)c3c2-c2oncc2CC3)cc1OC ?
86.2

Quick check: growth of O=C(O)c1ccc[n+](CC(=O)N2CCN(c3cc4c(cc3F)c(=O)c(C(=O)O)cn4C3CC3)CC2)c1 ?
30.2

Quick check: growth of COc1cc(-c2cc(=O)oc3cc(O)ccc23)cc(OC)c1OC ?
97.1

Quick check: growth of CCN(CC)CCOC(COc1cc(C)cc(C)c1)COc1cc(C)cc(C)c1 ?
-12

Quick check: growth of NC(=O)c1ccc[n+](CC(=O)N2CCN(c3cc4c(cc3F)c(=O)c(C(=O)O)cn4C3CC3)CC2)c1 ?
43

Quick check: growth of COC(=O)C1=C(C(=O)ONCCN(C)C)C2C=CC1(C(Cc1ccccc1)Nc1ccc(F)cc1)O2 (centres undefined) ?
96.3

Quick check: growth of CS(=O)(=O)c1ccc(-c2cc(-c3nnc(SCC(=O)Nc4ccc(C(=O)/C=C/c5ccc(Cl)cc5)cc4)n3-c3ccccc3)c3ccccc3n2)cc1 ?
92.2

====

- Test system: NCI-H226 lung
- assay_procedure: NCI-60 one-dose screen, 48 h (100 = growth as untreated, 0 = no growth, -100 = all killed)
- experimental_conditions: 10 µM unless noted
This is part of a sample that, as a whole, favours compounds with a hit. Of some 83,000 tested, about 20% had one in any assay.
property_label: growth (%)
Use % as the unit, but write only the number.

Quick check: growth of C=C1C(=O)O[C@H]2[C@H]1CC/C(COC(=O)CCCc1c[nH]c3ccccc13)=C\CC[C@@]1(C)O[C@@H]21 ?
76.7

Quick check: growth of CCOC(=O)N1CCN(CCCCl)CC1 ?
102

Quick check: growth of O=C1c2ccccc2-c2c1c1c(NCCCO)nc3ccccc3c1n2Cc1ccccc1 ?
21.5

Quick check: growth of CN1CCN(Cc2ccc(NC(=O)c3cncc(C#Cc4cnccc4C(F)(F)F)c3)cc2C(F)(F)F)CC1 ?
47.8

Quick check: growth of CN1CCCC1=Nc1ccccc1 ?
104

Quick check: growth of Cc1[nH]c(C(=O)Nc2ccccc2OCc2cccc(C(=O)NCCN)c2)c(Cl)c1Cl ?
87.8

Quick check: growth of COc1ccc2nc(N=Nc3c(O)ccc4ccccc34)sc2c1 ?
55

Quick check: growth of CC(C)(C)OC(=O)N1C/C(=C\c2ccoc2)C(=O)/C(=C/c2ccoc2)C1 ?
98.3

Quick check: growth of COc1cc2nc(-c3ccc(C(F)(F)F)cc3)cc(OCCN3CCCC3)c2cc1OC ?
82.7

Quick check: growth of COc1cccc(CCC(=O)c2cc3c(N)c(C(=O)Nc4ccccc4)sc3nc2C)c1 ?
71.5

Quick check: growth of Nc1nnc2cc(Cl)ccc2n1 ?
92

Quick check: growth of C=C1C(=O)O[C@H]2[C@H]1CC/C(CNC(=O)/C=C/c1ccc(Br)cc1)=C\CC[C@@]1(C)O[C@@H]21 ?
12.3

Quick check: growth of CCc1nc(C)cn1C(=O)OCc1nc2nc(Cl)nc(N3CCOCC3)c2[nH]1 ?
-75

Quick check: growth of N#Cc1c(Nc2ccccc2)nn2cc(-c3nc4ccccc4s3)c(N)nc12 ?
65.6

Quick check: growth of COc1ccc(Cn2nc(-c3ccccc3)c3c2CCc2cnoc2-3)cc1 ?
105

Quick check: growth of COc1ccc(Cl)cc1NC(=O)c1c(NC(=O)C(F)(F)C(F)(F)F)sc2c1CCCCC2 ?
-5.37

Quick check: growth of Cc1ccc(C2C3CC4CCCCC4N3[C@@]3(C(=O)Nc4cc(Cl)ccc43)C2C(=O)c2nc3ccccc3[nH]2)cc1 (stereo not given in full) ?
62.7

Quick check: growth of Cc1ccc(C2CC(c3cccc(Nc4ccncc4)c3)=NN2c2ccccc2)cc1 (stereo not given) ?
28.9

Quick check: growth of c1cnc2nc3c(cc2c1)oc1ccccc13 ?
93.2

Quick check: growth of C=C(C)[C@H]1CC/C(C)=C/CC[C@]2(C)O[C@H]2CC/C(COC(=O)[C@@H](OC(C)=O)[C@H](NC(=O)c2ccccc2)c2ccccc2)=C\[C@@H]1O ?
95
